// provenance: ChEMBL document CHEMBL1135180

System: Influenza A virus
measurement protocol: Inhibition of plaque formation
Type: functional, organism-based
Please provide measured log10 IC50 for the entries that follow.
Quick note: numbers are log10 of IC50, with ng/mL as the unit.

Lookup: I would be grateful if you could share the reported log10 IC50 for CC(=O)N[C@H]1[C@H]([C@H](O)[C@H](O)CO)OC(C(=O)O)=C[C@@H]1NC(=N)N .
Found: 0.00

Lookup: Form field: reported log10 IC50 of CCC(=O)N[C@@H]([C@@H]1OC(C(=O)O)=C[C@H](N=C(N)N)[C@H]1NC(C)=O)[C@H](O)CO.O=C(O)C(F)(F)F
Found: 0.60

Lookup: Could you tell me which log10 IC50 is on file for CC(=O)N[C@H]1[C@H]([C@H](N=[N+]=[N-])[C@H](O)CO)OC(C(=O)O)=C[C@@H]1NC(=N)N.O=C(O)C(F)(F)F ?
Found: -0.52

Lookup: Fill in the blank: the reported log10 IC50 of CO[C@@H]([C@@H]1OC(C(=O)O)=C[C@H](N=C(N)N)[C@H]1NC(C)=O)[C@H](O)CO.O=C(O)C(F)(F)F is ____.
Found: 0.48

Lookup: Consider the compound shown here: CCO[C@@H]([C@@H]1OC(C(=O)O)=C[C@H](N=C(N)N)[C@H]1NC(C)=O)[C@H](O)CO.O=C(O)C(F)(F)F What is its recorded log10 IC50?
Found: -0.15

Lookup: Given the entry CCCCCCCC(=O)N[C@@H]([C@@H]1OC(C(=O)O)=C[C@H](N=C(N)N)[C@H]1NC(C)=O)[C@H](O)CO.O=C(O)C(F)(F)F , report its measured log10 IC50.
Found: 2.00

Lookup: Record request: log10 IC50 value, item CCCCCCCCCCCCCCCC(=O)N[C@@H]([C@@H]1OC(C(=O)O)=C[C@H](N=C(N)N)[C@H]1NC(C)=O)[C@H](O)CO.O=C(O)C(F)(F)F
Found: 1.90
